System: T-47D breast
Assay: NCI-60 one-dose screen, 48 h
Details: 10 µM unless noted
Compounds without any hit were thinned out: in the full panel of roughly 83,000, 20% have a hit. Active and inactive are the calls of the source. Rule for the calls: active = growth percent below 10; inactive = the rest.
// classify into TRUE = active, FALSE = inactive

Some solved cases for reference:
COMPOUND	TEST TARGET	CATEGORY LABEL
COc1cc(/C=C/C(=O)c2c(-c3ccc(F)cc3)nc3sc(C)nn23)cc(OC)c1OC	T-47D breast	TRUE
Clc1ccc(CCC(Cn2ccnc2)Sc2c(Cl)cccc2Cl)cc1 (configuration not stated)	T-47D breast	FALSE

What is the recorded call for this compound in the test? Cc1nn(-c2ccccc2)c(Cl)c1C(CC(=O)c1ccc(Cl)cc1)CC(=O)c1ccc(Cl)cc1
FALSE

Next up: Cc1cc(C)n2nc(SCC(=O)Nc3sc4c(c3C(N)=O)CCC4)nc2n1
FALSE

Next up: CCOC(=O)c1ccccc1OC(=O)NNc1ccccc1
FALSE

Next up: CNc1ccc(CSc2ccc(Cl)cc2)cc1
FALSE

Next up: O=C1C2C3C=CC(O3)C2C(=O)N1Nc1ccccc1 (configuration not stated)
FALSE

Next up: Cc1ccc(C(O)C2=CC(=O)c3ccccc3C2=O)cc1 (configuration not stated)
FALSE

Next up: Nc1nc(SCc2ccccc2Cl)c(-c2ccccc2)c(SCc2ccccc2Cl)n1
FALSE

Next up: CCN(CC)CCCCNc1c2ccccc2[n+](C)c2c1[nH]c1ccccc12
TRUE

Next up: COc1ccc2c(c1)C(=O)/C(=C/c1cccc(OCC(=O)c3ccccc3)c1)CC2
FALSE

Next up: O=[N+]([O-])c1cnc(Sc2ccncn2)c([N+](=O)[O-])c1
TRUE

Next up: O=C(c1ccccc1)c1ccco1
FALSE

Next up: CN=C(NC)N/N=C(C)\C=N\NC(=NC)NC
FALSE

Next up: CC1=NN(c2ccccc2Cl)C(=O)/C1=C\c1cn(S(=O)(=O)c2ccc(C)cc2)c2ccccc12
FALSE

Next up: c1ccc(Nc2nnc(-c3cc(-c4cccnc4)n(-c4ccccc4)n3)s2)cc1
FALSE

Next up: CCOC(Cc1c(N)[nH]c(=S)[nH]c1=O)OCC
FALSE

Next up: COc1ccc(-c2cncn2-c2ccc(-c3nc4cc(OC)c(OC)c(OC)c4s3)cc2)cc1N
FALSE

Next up: CSc1nnc(C2=CC(=O)c3ccccc3C2=O)n1-c1ccccc1
FALSE

Cited source for all entries: PubChem BioAssay (NCI)
